FYI, the data here is from patent US20260167714A1.

- test_target: T1, human ILT4 expressed on cells (human, UniProt Q8N423 22-597)
- T1 construct: whole, on cells; The same entry is used for endogenous ILT4 of human macrophages; also called CHO-S/ILT4 cells; ILT4-CHO cells
- T1 sequence (Q8N423 22-597): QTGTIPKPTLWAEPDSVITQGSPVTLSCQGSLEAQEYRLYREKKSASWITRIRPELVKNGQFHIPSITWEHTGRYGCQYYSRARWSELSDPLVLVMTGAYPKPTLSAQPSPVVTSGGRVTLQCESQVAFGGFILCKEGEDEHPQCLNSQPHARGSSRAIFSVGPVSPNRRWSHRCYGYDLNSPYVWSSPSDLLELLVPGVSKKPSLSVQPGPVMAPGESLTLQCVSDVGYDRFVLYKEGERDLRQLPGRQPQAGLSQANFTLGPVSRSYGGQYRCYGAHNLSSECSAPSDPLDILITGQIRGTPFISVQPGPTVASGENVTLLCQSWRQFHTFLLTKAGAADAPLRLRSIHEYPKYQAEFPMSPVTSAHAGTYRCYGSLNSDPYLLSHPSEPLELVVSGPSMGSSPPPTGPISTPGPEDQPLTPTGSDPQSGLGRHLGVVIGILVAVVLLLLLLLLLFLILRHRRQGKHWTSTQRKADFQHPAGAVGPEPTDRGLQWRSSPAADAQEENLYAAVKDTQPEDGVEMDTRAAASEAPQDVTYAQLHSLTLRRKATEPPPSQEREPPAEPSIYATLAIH
- method_summary: flow based HLA-G blocking assay
Below, each entry is listed alongside its reported IC50.
Quick reminder: number only, in µg/mL, skip the unit.

Completed entries (count: 2):
Hz156.03-LALA (antibody, human IgG1, kappa, L234A L235A, V domains shown, Humanized L156S3, human IgG1 L234A/L235A, kappa) VH: QVQLVQSGAEVKKPGSSVKVSCKASGYTFTDYYMNWVRQAPGQGLEWIARIYPGVYRTHYNEKFKDRVTLTADKSTSTAYMELSSLRSEDTAVYYCARSGYYGGTYEEDAMDYWGQGTTVTVSS VL: DIQMTQSPSSLSASVGDRVTITCRASENIYSNLAWYQQKPGKAPKLLVYAATSLADGVPSRFSGSGSGTDYTLTISSLQPEDFATYYCQNFWDTPYTFGQGTKVEIKR	0.212
Hz180-LALA (antibody, human IgG1, kappa, L234A L235A, V domains shown, Humanized L180S4, human IgG1 L234A/L235A, kappa; also called Humanized 180_04; Hz 180 04) VH: QVQLVQSGAEVKKPGSSVKVSCKASGYSFIGYFMNWMRQAPGQGLEWIGRINPYNGDIFYNQKFKGRVTITVDKSTSTAYMELSSLRSEDTAVYYCARGITVAAGSFDVWGQGTTVTVSS VL: DIVMTQSPDSLAVSLGERATINCRASESVDNYGNTFMHWYQQKPGQPPKLLIYRASNLESGIPDRFSGSGSGTDFTLTISSLQAEDVAVYYCQQSSDHPLTFGGGTKVEIKR	0.051

Switching to the query record.
// Input: Hz77-LALA (antibody, human IgG1, kappa, L234A L235A, V domains shown, Humanized L77S2, human IgG1 L234A/L235A, kappa; also called Humanized 77_01; Hz 77 01) VH: QVQLVQSGAEVKKPGSSVKVSCKASGYSFTGYSVNWVRQAPGQGLEWIGRINPYNGDIFNNQKFKGRATITVDKSTSTAYMELSSLRSEDTAVYYCARGTTVGGAWFAYWGQGTLVTVSS VL: DIVMTQSPDSLAVSLGERATINCRASESVDSYGYSFLHWYQQKPGQPPKLLIYLASNLESGIPDRFSGSGSGTDFTLTISSLQAEDVAVYYCQQSNEDLMYTFGGGTKVEIKR . Output its IC50 only. 0.176
